Data provenance: patent US6872735B2

- experimental.target: recombinant human LFA-1 (LFA-1:ICAM-1) (Homo sapiens, UniProt P05107+P20701)
- Sequence (P20701 26-1170): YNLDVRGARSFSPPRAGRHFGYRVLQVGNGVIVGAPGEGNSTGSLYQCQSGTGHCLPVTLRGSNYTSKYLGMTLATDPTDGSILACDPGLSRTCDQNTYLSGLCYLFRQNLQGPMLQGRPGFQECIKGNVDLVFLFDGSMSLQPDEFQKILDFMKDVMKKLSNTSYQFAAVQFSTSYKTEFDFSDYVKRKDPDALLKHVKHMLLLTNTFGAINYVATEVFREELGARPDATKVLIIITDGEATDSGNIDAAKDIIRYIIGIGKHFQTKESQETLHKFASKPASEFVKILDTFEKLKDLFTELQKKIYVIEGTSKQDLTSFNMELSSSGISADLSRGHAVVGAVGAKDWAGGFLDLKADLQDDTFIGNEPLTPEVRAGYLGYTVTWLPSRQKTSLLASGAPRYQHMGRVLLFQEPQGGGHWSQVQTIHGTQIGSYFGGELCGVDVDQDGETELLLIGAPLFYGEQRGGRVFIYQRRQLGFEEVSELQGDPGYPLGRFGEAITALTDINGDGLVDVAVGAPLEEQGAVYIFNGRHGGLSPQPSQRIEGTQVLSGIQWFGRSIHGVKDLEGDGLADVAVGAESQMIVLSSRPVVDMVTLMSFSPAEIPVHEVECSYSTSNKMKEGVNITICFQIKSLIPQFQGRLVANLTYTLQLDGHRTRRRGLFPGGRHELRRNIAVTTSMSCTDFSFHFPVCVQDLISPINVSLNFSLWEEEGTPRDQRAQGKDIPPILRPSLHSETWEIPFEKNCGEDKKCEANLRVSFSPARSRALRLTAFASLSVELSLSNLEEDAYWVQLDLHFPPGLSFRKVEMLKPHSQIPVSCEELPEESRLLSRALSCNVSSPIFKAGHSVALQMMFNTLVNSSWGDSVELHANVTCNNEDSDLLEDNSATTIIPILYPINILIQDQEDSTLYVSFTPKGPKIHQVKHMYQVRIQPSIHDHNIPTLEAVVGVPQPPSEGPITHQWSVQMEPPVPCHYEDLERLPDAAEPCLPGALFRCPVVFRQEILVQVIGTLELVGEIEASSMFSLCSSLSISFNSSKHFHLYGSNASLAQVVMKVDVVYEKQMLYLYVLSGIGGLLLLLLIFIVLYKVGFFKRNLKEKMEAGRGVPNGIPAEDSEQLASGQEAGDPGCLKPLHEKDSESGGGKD
- Sequence (P05107 23-769): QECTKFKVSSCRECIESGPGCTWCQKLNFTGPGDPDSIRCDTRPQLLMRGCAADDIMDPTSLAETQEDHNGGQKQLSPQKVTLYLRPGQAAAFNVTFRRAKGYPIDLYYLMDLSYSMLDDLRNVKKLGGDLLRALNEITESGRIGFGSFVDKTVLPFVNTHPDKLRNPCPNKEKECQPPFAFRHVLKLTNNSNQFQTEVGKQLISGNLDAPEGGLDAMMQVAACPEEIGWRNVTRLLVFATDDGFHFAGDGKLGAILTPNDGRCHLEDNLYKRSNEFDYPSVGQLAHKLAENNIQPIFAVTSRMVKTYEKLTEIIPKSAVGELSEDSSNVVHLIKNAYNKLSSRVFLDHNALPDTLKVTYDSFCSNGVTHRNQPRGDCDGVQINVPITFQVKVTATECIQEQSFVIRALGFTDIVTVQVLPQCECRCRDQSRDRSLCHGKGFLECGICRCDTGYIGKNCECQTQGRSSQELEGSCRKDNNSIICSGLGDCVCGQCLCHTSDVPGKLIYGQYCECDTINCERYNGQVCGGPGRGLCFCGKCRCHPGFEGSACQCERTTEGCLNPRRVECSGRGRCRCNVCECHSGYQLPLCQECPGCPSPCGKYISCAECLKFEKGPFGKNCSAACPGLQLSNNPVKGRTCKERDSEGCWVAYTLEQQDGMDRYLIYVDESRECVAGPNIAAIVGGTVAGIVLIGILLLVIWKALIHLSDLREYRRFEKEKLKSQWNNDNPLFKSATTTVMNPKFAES
- protocol.text: PLM2 antibody capture LFA-1:ICAM-1 assay
Listed here are compounds together with their documented IC50.

compound	IC50 (nM)
CC1CC[C@@H](C(=O)NC[C@H](NC(=O)c2c(Cl)cc(CNC(=O)/C=C/c3ccco3)cc2Cl)C(=O)O)N1 (stereo partly shown)	2
O=C(/C=C/c1ccco1)NCc1cc(Cl)c(C(=O)N[C@@H](CNC(=O)[C@@H]2C[C@@H](O)CN2)C(=O)O)c(Cl)c1	2
O=C(/C=C/c1ccco1)NCc1cc(Cl)c(C(=O)N[C@@H](CNC(=O)[C@H]2CCCN2)C(=O)O)c(Cl)c1	8
O=C(/C=C/c1ccco1)NCc1cc(Cl)c(C(=O)N[C@@H](CNC(=O)[C@H]2CSCN2)C(=O)O)c(Cl)c1	4
O=C(/C=C/c1ccco1)NCc1cc(Cl)c(C(=O)N[C@@H](CNC(=O)C2CCCO2)C(=O)O)c(Cl)c1 (stereo partly shown)	5
O=C(/C=C/c1ccco1)NCc1cc(Cl)c(C(=O)N[C@@H](CNC(=O)[C@@H]2CCCCN2)C(=O)O)c(Cl)c1	2
O=C(/C=C/c1ccco1)NCc1cc(Cl)c(C(=O)N[C@@H](CNC(=O)[C@@H]2CSC(=O)N2)C(=O)O)c(Cl)c1	12
